Values from ChEMBL document CHEMBL3085739

targetEntity: Epidermal growth factor receptor (Homo sapiens, UniProt P00533, L858R/T790M)
Sequence (P00533 25-1210 T790M/L858R limits assumed): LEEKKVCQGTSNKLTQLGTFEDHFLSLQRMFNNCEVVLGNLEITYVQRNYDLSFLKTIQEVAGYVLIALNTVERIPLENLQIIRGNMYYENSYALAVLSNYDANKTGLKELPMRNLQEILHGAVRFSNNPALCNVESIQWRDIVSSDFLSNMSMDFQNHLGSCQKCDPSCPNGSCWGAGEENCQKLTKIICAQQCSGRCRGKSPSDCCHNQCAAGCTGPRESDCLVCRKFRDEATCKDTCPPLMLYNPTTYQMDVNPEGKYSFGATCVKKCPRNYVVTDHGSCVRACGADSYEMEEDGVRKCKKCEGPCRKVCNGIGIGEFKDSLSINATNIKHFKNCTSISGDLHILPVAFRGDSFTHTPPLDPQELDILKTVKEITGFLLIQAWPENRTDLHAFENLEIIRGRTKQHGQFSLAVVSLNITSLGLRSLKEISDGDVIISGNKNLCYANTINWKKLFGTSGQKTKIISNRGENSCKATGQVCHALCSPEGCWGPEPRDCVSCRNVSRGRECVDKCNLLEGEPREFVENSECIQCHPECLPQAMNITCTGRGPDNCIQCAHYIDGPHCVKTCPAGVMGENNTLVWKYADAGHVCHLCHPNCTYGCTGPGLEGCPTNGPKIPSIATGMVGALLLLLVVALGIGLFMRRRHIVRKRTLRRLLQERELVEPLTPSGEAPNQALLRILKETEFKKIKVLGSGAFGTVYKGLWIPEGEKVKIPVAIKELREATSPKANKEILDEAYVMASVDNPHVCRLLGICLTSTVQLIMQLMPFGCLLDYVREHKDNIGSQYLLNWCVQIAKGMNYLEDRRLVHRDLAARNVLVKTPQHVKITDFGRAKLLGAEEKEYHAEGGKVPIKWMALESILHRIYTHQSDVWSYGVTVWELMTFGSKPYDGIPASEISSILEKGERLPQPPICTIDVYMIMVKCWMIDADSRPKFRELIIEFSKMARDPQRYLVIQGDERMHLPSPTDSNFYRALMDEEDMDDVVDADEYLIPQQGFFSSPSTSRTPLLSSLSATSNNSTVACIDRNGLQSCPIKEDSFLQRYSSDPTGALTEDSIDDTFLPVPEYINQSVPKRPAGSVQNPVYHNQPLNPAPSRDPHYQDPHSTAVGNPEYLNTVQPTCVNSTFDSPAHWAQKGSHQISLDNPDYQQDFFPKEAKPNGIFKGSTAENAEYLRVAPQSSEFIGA
testProtocol: Binding affinity to EGFR L858R/T790M double mutant (unknown origin)

structureNotation: C=CC(=O)N1CC[C@H](N2C(=O)N(c3ccccc3)Cc3cnc(Nc4ccc(N5CCN(C)CC5)c(C)c4)nc32)C1
Kd / nM: 1.4

###

testProtocol: Clearance in Sprague-Dawley rat at 25 mg/kg, po by LC/MS analysis
Type: ADME, organism-based
Design: dose 25 mg/kg, route oral
studyConditions: in vivo

structureNotation: C=CC(=O)N1CC[C@H](N2C(=O)N(c3ccccc3)Cc3cnc(Nc4ccc(C5CCN(C)CC5)cc4)nc32)C1
CL/F (mL/min/kg): 335
//
structureNotation: C=CC(=O)N1CC[C@H](N2C(=O)N(c3ccccc3)Cc3cnc(Nc4ccccc4)nc32)C1
CL/F (mL/min/kg): 95
//
structureNotation: C=CC(=O)N1CC[C@H](N2C(=O)N(c3ccccc3)Cc3cnc(Nc4cccc(N5CCN(C)CC5)c4)nc32)C1
CL/F (mL/min/kg): 565
//
structureNotation: C=CC(=O)N1CC[C@H](N2C(=O)N(c3ccccc3)Cc3cnc(Nc4ccc(N5CCN(C)CC5)c(C)c4)nc32)C1
CL/F (mL/min/kg): 167

###

This section presents compounds with their documented AUC(0-inf) values.
testProtocol: AUC (0 to infinity) in Sprague-Dawley rat at 25 mg/kg, po by LC/MS analysis
Assay type: ADME, organism-based
Set-up: dose 25 mg/kg, route oral, time infinity
studyConditions: plasma
assayEndpoint: AUC(0-inf)

structureNotation: C=CC(=O)N1CC[C@H](N2C(=O)N(c3ccccc3)Cc3cnc(Nc4ccc(C5CCN(C)CC5)cc4)nc32)C1
observedResult: 1300 ng·h/mL

structureNotation: C=CC(=O)N1CC[C@H](N2C(=O)N(c3ccccc3)Cc3cnc(Nc4ccc(N5CCN(C)CC5)cc4OC)nc32)C1
observedResult: 2120 ng·h/mL

structureNotation: C=CC(=O)N1CC[C@H](N2C(=O)N(Cc3ccccc3)Cc3cnc(Nc4ccc(N5CCN(C)CC5)cc4OC)nc32)C1
observedResult: 418 ng·h/mL

structureNotation: C=CC(=O)N1CC[C@H](N2C(=O)N(c3ccccc3)Cc3cnc(Nc4ccc(N5CCN(C)CC5)c(C)c4)nc32)C1
observedResult: 2490 ng·h/mL

structureNotation: C=CC(=O)N1CC[C@H](N2C(=O)N(c3ccccc3)Cc3cnc(Nc4ccccc4)nc32)C1
observedResult: 4520 ng·h/mL

structureNotation: C=CC(=O)N1CC[C@H](N2C(=O)N(c3ccccc3)Cc3cnc(Nc4ccc(N5CCN(C)CC5)c(F)c4)nc32)C1
observedResult: 3480 ng·h/mL

structureNotation: C=CC(=O)N1CC[C@H](N2C(=O)N(c3ccccc3)Cc3cnc(Nc4ccc(N5CCN(C)CC5)c(OC)c4)nc32)C1
observedResult: 948 ng·h/mL

structureNotation: C=CC(=O)N1CC[C@H](N2C(=O)N(c3ccccc3)Cc3cnc(Nc4ccc(N5CCN(C)CC5)cc4)nc32)C1
observedResult: 2310 ng·h/mL

structureNotation: C=CC(=O)N1CC[C@H](N2C(=O)N(c3ccccc3)Cc3cnc(Nc4cccc(N5CCN(C)CC5)c4)nc32)C1
observedResult: 760 ng·h/mL

structureNotation: C=CC(=O)N1CC[C@H](N2C(=O)N(c3ccccc3)Cc3cnc(Nc4ccc(CCN5CCN(C)CC5)cc4)nc32)C1
observedResult: 1130 ng·h/mL
